- Target System: T1, IL2R(bg)-Fc construct (human IL2R beta extracellular domain fused to Fc(knob) with avi tag, human IL2R gamma … (human, biotin on the C-terminal avi tag (co-expressed BirA)))
- T1 construct: Knob-into-hole Fc heterodimer; also called IL2Rβγ; human heterodimeric IL-2 receptor beta/gamma
- T1 sequence (chain, as listed by the source limits assumed, chain 1 of 2): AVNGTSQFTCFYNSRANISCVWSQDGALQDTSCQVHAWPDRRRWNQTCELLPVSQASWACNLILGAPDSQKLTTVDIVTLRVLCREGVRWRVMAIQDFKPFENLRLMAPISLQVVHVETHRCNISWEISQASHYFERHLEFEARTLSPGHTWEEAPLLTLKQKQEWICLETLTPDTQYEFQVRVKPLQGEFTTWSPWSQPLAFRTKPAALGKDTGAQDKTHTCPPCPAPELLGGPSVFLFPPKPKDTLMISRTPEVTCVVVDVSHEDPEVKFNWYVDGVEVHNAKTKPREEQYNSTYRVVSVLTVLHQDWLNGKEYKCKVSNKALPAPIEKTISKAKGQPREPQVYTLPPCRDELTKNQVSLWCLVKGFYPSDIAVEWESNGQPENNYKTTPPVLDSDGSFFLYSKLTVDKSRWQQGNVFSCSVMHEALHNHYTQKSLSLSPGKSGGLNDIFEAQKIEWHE
- T1 sequence (chain, as listed by the source limits assumed, chain 2 of 2): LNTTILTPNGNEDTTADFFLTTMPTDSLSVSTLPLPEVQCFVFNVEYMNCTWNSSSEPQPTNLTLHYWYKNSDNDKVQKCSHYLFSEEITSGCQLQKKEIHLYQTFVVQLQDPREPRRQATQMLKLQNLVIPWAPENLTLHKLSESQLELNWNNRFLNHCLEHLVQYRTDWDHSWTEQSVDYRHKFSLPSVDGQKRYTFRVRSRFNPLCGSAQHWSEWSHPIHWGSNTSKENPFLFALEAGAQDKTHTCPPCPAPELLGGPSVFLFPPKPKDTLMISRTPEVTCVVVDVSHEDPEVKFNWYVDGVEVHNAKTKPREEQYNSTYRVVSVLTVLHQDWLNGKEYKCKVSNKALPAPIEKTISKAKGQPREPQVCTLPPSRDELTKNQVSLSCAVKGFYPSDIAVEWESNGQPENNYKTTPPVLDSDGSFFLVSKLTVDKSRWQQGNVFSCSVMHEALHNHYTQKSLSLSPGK
- Assay: ELISA: biotinylated IL2R(bg)-Fc coated on neutravidin plates, clone in bacterial supernatant bound at pH 6, washing and 30 min incubation at pH 6.0, 6.5, 7.0 or 7.4, detection with anti-Flag/HRP; absorption at pH 6 set to 1
Value Type: binding result

ExplResOnc.P177.0035 (IL2v (consensus all)) (ligand, not shown: large carriers, as m20) APASSSTKKTELQLQELLDDLQMILNGINNYKNPKLTRMLTAKFAMPKKATELKHLQCLEEELKPLEEVLNGAQSKNFHLDPRELIENINVIVLELKGSETTFMCEYADETATIVEFLNHWITFAQSIIETLE; binds
ExplResOnc.P175.0125 (ligand, not shown: large carriers, as m20) APASSSTKKTETQLEELLDDLEMILNGINNYKNPKLTRMLTAKFAMPKKATELKHLQCLEEELKPLEEVLNGAQSKNFHLDPRELIENINVIVLELKGSETTFMCEYADETATIVEFLNHWITFAQSIIETLD; binds
